molecular target: EGFR TMLRCS (BaF3-TMLRCS cell line) (Homo sapiens, UniProt P00533, C797S/L858R/T790M); test: HTRF Phospho EGFR TMLRCS assay (cellular); conditions: BaF3-TMLRCS cells, 4 hours incubation
Sequence (P00533 25-1210 T790M/C797S/L858R): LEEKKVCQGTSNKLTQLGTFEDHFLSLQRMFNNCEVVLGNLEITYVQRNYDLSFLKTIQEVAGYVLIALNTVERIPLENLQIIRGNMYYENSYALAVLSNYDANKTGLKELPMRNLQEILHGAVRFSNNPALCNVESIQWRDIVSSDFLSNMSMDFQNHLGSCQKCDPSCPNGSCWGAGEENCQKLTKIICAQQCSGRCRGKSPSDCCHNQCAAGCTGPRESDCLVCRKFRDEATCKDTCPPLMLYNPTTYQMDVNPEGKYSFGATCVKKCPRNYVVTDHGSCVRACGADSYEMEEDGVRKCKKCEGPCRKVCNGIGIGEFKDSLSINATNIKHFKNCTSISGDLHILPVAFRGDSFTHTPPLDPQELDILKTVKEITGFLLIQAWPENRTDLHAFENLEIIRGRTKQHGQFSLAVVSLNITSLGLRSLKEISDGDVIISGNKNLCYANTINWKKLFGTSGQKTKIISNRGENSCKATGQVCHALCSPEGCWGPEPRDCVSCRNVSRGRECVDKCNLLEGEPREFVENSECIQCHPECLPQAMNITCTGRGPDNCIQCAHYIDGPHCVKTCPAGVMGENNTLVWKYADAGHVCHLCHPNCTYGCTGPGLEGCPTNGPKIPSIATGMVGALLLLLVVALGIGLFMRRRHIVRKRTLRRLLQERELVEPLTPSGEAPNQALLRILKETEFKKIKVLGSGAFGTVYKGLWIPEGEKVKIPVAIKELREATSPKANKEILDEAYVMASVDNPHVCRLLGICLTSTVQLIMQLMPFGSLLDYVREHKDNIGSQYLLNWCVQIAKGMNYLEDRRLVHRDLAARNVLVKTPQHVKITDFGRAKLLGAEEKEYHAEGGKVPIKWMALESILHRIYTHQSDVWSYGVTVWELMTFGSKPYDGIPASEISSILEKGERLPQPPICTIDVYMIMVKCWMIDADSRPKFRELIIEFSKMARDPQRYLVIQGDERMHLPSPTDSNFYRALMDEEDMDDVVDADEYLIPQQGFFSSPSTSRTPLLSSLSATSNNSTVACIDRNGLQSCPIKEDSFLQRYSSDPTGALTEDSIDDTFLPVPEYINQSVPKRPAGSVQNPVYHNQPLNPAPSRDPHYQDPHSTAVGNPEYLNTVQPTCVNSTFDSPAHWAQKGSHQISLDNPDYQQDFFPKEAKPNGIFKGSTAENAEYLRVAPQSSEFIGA
MEASURE: IC50 (nM)

# COMPOUND, IC50, nM
data = [
    ("CCN1CCC(c2ccc(-c3cc4c(c(C(F)(F)F)c3)CN(C(C(=O)Nc3nccs3)c3ncn5c3CCC5)C4=O)cc2)CC1 (racemic)", 20),
    ("O=C(Nc1nccs1)C(c1ncn2c1CCC2)N1Cc2c(cc(C#Cc3ccc(CN4CCC(CO)CC4)cc3)cc2C(F)F)C1=O (racemic)", 3),
]

a: O=C(Nc1nccs1)C(c1ncn2c1C[C@@H](F)C2)N1Cc2c(cc(C#Cc3ccc(CN4CCC(CO)CC4)cc3)cc2C(F)F)C1=O (mixture of isomers)
b: CCN1CCC(c2ccc(-c3cc4c(c(C(F)F)c3)CN(C(C(=O)Nc3nccs3)c3ncn5c3CCC5)C4=O)cc2)[C@@H](F)C1 (mixture of isomers)
c: O=C(Nc1nccs1)C(c1ncn2c1C[C@@H](F)C2)N1Cc2c(cc(C#Cc3ccc(CN4CC5(CC(O)C5)C4)cc3)cc2C(F)(F)F)C1=O (mixture of isomers)
d: CCN1CCC(c2ccc(-c3cc4c(c(C(F)F)c3)CN(C(C(=O)Nc3nccs3)c3ncn5c3CCC5)C4=O)cc2)CC1 (racemic)
Arrange by IC50, high to low. # answer = labels listed in requested order
b, d, c, a
